Test system: Abeta total produced and secreted by human neuroblastoma SKNBE2 cells expressing hAPP695
Method Summary: Cellular αLisa assay in SKNBE2 cells, Abeta total
Format: cell-based
Test Parameters: 18 hours incubation, read-out: Cellular αLisa assay in SKNBE2 cells Abetatotal pIC50 (converted)
log10(IC50) overview
log10 IC50, nM

Look over these answered cases.
C[C@@]1(c2cc(NC(=O)c3ccc(Cl)cn3)ccc2F)Cn2c(cn(CC(F)(F)F)c2=O)C(N)=N1 ... 0.68
COc1cnc(C(=O)Nc2ccc(F)c([C@]3(C)Cn4c(cn(C)c4=O)C(N)=N3)c2)cn1 ... 1.47
COc1cnc(C(=O)Nc2ccc(F)c([C@]3(C)Cn4c(cn(CC(F)(F)F)c4=O)C(N)=N3)c2)cn1 ... 1.00
Cn1cc2n(c1=O)C[C@@](C)(c1cc(NC(=O)c3ccc(Cl)cn3)ccc1F)N=C2N ... 0.78
C[C@@]1(c2cc(NC(=O)c3ccc(C#N)cn3)ccc2F)Cn2c(cn(CC(F)(F)F)c2=O)C(N)=N1 ... 1.03

Ask: Please look up its log10(IC50): Cc1nc(C(=O)Nc2ccc(F)c([C@]3(C)Cn4c(cn(C)c4=O)C(N)=N3)c2)co1
Result: 1.72

Ask: // repeat for Cn1cc2n(c1=O)C[C@@](C)(c1cc(NC(=O)c3ccc(F)cn3)ccc1F)N=C2N and report
Result: 1.95
